Target: Thymidylate kinase (Mycobacterium tuberculosis)
Sequence (P9WKE1 whole entry): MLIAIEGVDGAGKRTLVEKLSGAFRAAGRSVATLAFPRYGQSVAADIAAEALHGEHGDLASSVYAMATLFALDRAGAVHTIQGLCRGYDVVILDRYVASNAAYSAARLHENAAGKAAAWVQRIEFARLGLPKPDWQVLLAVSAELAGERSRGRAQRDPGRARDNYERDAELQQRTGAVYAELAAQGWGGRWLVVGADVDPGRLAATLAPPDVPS
Experiment: Inhibition of Mycobacterium tuberculosis recombinant TMPK
Ki: recorded values
Write down the numeric answer in µM and omit the unit.

{"item smiles": "Cc1cn(Cc2ccc(/C=C/CC(=O)O)cc2)c(=O)[nH]c1=O", "result type": "Ki", "measured result": 39}
{"item smiles": "Cc1cn(Cc2ccc(C#CCCCC(=O)O)cc2)c(=O)[nH]c1=O", "result type": "Ki", "measured result": 96}
{"item smiles": "NC(=O)CCCc1ccc(Cn2cc(Cl)c(=O)[nH]c2=O)cc1", "result type": "Ki", "measured result": 39}
{"item smiles": "Cc1cn(Cc2ccc(CCCCC(=O)O)cc2)c(=O)[nH]c1=O", "result type": "Ki", "measured result": 58}
{"item smiles": "Cc1cn(Cc2ccc(C#CCCO)cc2)c(=O)[nH]c1=O", "result type": "Ki", "measured result": 70}

// Ki value for Cc1cn([C@@H]2O[C@H](CO)[C@@H](O)[C@H]2O)c(=O)n(Cc2ccccc2)c1=O : 75

// field: Ki; key: O=C(O)CCCCCc1ccc(Cn2cc(Br)c(=O)[nH]c2=O)cc1 ; value = 34

For record Cc1cn(Cc2ccc(CCCCC(N)=O)cc2)c(=O)[nH]c1=O the listed Ki is 55

Memo: Cc1cn(Cc2ccc(CCCCCC(=O)O)cc2)c(=O)[nH]c1=O , reported Ki: 47

---

Test: Selectivity index, ratio of Ki for human TMPK to Ki for Mycobacterium tuberculosis recombinant TMPK
Threshold check on Ratio Ki: strictly below 20 is satisfied; on or above 20 is not satisfied.

{"item smiles": "O=C(O)CCCc1ccc(Cn2cc(Br)c(=O)[nH]c2=O)cc1", "group": "not satisfied"}

Determine whether this molecule shows Ratio Ki lower than 20 (ties excluded): O=c1[nH]c(=O)n([C@H]2C[C@H](O)[C@@H](CO)O2)cc1Br
not satisfied

Criterion: Ratio Ki strictly below 20. Is it met by O=C(O)CCCCCc1ccc(Cn2cc(Br)c(=O)[nH]c2=O)cc1 ?
satisfied

Determine whether this molecule shows Ratio Ki lower than 20 (ties excluded): O=C(O)CCCc1ccc(Cn2cc(Cl)c(=O)[nH]c2=O)cc1
not satisfied

Ratio Ki under 20? Item: O=C(O)CCCCc1ccc(Cn2cc(Cl)c(=O)[nH]c2=O)cc1
satisfied

Is the reported Ratio Ki for Cc1cn(Cc2ccc(CCCC(=O)O)cc2)c(=O)[nH]c1=O strictly below 20?
satisfied

---

The entries below come with measured pKi values attached.
Biological target: UniProt P9WKE1
Experiment: Inhibition of Mycobacterium tuberculosis recombinant TMPK
Bear in mind: pKi is minus log10 of a mol/L concentration; give just that figure.

Here is how some molecules turned out for pKi.
{"item smiles": "COC(=O)CCCc1ccc(Cn2cc(Br)c(=O)[nH]c2=O)cc1", "target of assay": "UniProt P9WKE1", "result type": "pKi", "measured result": 4.28}
{"item smiles": "NC(=O)CCCCCc1ccc(Cn2cc(Br)c(=O)[nH]c2=O)cc1", "target of assay": "UniProt P9WKE1", "result type": "pKi", "measured result": 4.71}
{"item smiles": "O=c1[nH]c(=O)n([C@H]2C[C@H](O)[C@@H](CO)O2)cc1Cl", "target of assay": "UniProt P9WKE1", "result type": "pKi", "measured result": 5.00}
{"item smiles": "O=c1[nH]c(=O)n([C@H]2C[C@H](O)[C@@H](CO)O2)cc1Br", "target of assay": "UniProt P9WKE1", "result type": "pKi", "measured result": 5.30}
{"item smiles": "Cc1cn(Cc2ccc(CCC(N)=O)cc2)c(=O)[nH]c1=O", "target of assay": "UniProt P9WKE1", "result type": "pKi", "measured result": 4.05}

API: the following record is the query input.
Value of measured pKi for the entry Cc1cn(Cc2ccc(/C=C/C(N)=O)cc2)c(=O)[nH]c1=O : 3.71

---

Biological target: Thymidylate kinase (Homo sapiens, UniProt P23919)
Sequence (P23919 whole entry): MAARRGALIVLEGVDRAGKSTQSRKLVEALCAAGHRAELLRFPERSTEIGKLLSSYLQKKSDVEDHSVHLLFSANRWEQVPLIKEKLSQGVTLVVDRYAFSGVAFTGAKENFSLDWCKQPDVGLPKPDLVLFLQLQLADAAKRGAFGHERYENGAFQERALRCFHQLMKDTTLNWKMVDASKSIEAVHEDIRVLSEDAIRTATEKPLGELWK
Field: label. Allowed values: Condition met (Ki < 300 µM) or Condition not met (Ki >= 300 µM).

Here's what some known entries look like.
{"item smiles": "O=c1[nH]c(=O)n([C@H]2C[C@H](O)[C@@H](CO)O2)cc1Br", "group": "Condition met"}
{"item smiles": "Cc1cn(Cc2ccc(CCCC(=O)O)cc2)c(=O)[nH]c1=O", "group": "Condition met"}
{"item smiles": "O=C(O)CCCCCc1ccc(Cn2cc(Br)c(=O)[nH]c2=O)cc1", "group": "Condition met"}
{"item smiles": "O=C(O)CCCCc1ccc(Cn2cc(Cl)c(=O)[nH]c2=O)cc1", "group": "Condition met"}

In plain terms, does O=C(O)CCCc1ccc(Cn2cc(Cl)c(=O)[nH]c2=O)cc1 come in under 300 µM for Ki?
Condition not met

---

Molecular target: Thymidylate kinase (Mycobacterium tuberculosis)
Experiment: Inhibition of Mycobacterium tuberculosis recombinant TMPK
result type: log10 Ki (log10 of the value in µM)
# log10 transformed; quantity=Ki; unit=µM

Previously resolved entries follow.
{"item smiles": "NC(=O)CCCc1ccc(Cn2cc(Br)c(=O)[nH]c2=O)cc1", "result type": "log10 Ki", "measured result": 1.59}
{"item smiles": "NC(=O)CCCCc1ccc(Cn2cc(Br)c(=O)[nH]c2=O)cc1", "result type": "log10 Ki", "measured result": 1.54}
{"item smiles": "O=C(O)CCCCc1ccc(Cn2cc(Cl)c(=O)[nH]c2=O)cc1", "result type": "log10 Ki", "measured result": 1.20}
{"item smiles": "NC(=O)CCCCCc1ccc(Cn2cc(Cl)c(=O)[nH]c2=O)cc1", "result type": "log10 Ki", "measured result": 1.41}
{"item smiles": "O=C(O)CCCCc1ccc(Cn2cc(Br)c(=O)[nH]c2=O)cc1", "result type": "log10 Ki", "measured result": 1.58}
{"item smiles": "O=C(O)CCCc1ccc(Cn2cc(Br)c(=O)[nH]c2=O)cc1", "result type": "log10 Ki", "measured result": 1.00}

Kindly note: Thymidylate kinase (Mycobacterium tuberculosis), Cc1cn(Cc2ccc(CCC(=O)O)cc2)c(=O)[nH]c1=O , log10 Ki value reported: 1.74

The molecule Cc1cn(Cc2ccc(CCCC(=O)O)cc2)c(=O)[nH]c1=O on Thymidylate kinase (Mycobacterium tuberculosis): log10 Ki was 1.11

Item: Cc1cn(Cc2ccc(CCCC(N)=O)cc2)c(=O)[nH]c1=O | System: Thymidylate kinase (Mycobacterium tuberculosis) | log10 Ki: 2.05

Test item O=C(O)CCCc1ccc(Cn2ccc(=O)[nH]c2=O)cc1 ; Thymidylate kinase (Mycobacterium tuberculosis); reported log10 Ki was 2.31

With Thymidylate kinase (Mycobacterium tuberculosis) as the test system, Cc1cn(Cc2ccc(CCCCCC(N)=O)cc2)c(=O)[nH]c1=O showed log10 Ki of 1.42

Reported log10 Ki (Thymidylate kinase (Mycobacterium tuberculosis)) for entry Cc1cn(Cc2ccc(CCCCO)cc2)c(=O)[nH]c1=O is 1.71

The recorded log10 Ki with Thymidylate kinase (Mycobacterium tuberculosis) for O=C(O)CCCCCc1ccc(Cn2cc(Cl)c(=O)[nH]c2=O)cc1 was 1.36

Kindly note: Thymidylate kinase (Mycobacterium tuberculosis), COC(=O)CCCc1ccc(Cn2cc(Cl)c(=O)[nH]c2=O)cc1 , log10 Ki value reported: 1.77
